Molecular target: Fes (UniProt P07332)
Sequence (P07332 whole entry, looked up): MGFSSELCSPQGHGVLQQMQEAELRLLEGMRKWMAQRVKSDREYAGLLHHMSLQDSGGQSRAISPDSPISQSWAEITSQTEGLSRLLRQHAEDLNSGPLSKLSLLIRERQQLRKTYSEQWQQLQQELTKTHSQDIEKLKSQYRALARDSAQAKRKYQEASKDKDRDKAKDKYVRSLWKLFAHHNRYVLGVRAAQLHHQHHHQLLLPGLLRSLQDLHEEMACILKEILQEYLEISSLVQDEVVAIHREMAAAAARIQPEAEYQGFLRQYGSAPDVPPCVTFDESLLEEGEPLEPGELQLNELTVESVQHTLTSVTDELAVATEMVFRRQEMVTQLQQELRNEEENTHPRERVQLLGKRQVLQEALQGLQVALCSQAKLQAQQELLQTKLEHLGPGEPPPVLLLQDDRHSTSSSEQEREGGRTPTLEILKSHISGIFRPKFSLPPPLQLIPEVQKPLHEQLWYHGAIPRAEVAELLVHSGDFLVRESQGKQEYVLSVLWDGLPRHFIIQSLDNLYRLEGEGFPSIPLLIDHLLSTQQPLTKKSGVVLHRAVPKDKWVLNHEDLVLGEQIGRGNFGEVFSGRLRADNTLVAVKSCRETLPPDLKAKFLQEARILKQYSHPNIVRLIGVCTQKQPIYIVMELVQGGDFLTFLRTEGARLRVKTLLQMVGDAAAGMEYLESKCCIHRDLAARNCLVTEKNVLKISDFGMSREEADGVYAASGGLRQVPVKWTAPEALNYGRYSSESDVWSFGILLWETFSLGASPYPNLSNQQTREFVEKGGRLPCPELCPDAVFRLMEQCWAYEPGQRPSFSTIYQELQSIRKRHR
Assay: phosphorylation enrichment, bacterial display (enrichment ratio); higher = better substrate or ligand; peptides without Tyr show the background;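 further: 11-residue human phosphosite peptides and single-mutation variants displayed on the E. coli surface, counted by deep sequencing, each peptide's frequency after selection divided by its frequency in the unselected input library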;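 further: frequency after pTyr selection over input frequency; kinase dosed for 20-30% of maximal phosphorylation in three min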
Quick list: phosphorylation enrichment per entry.
Format: numeric value only, no unit, no commentary.

Examples from the recorded data:
HRGFLYLAIEY [TEK_Y899_Y897F]	1.76
TISPFYRQSLF [CRYAA_Y48_YF]	0.76
SVVVPYAPPEV [TP53_Y220_E221A]	0.814

I am curious: what phosphorylation enrichment value has been reported for IGRGSYAKVLL [PRKCZ_Y263] ?
0.545

phosphorylation enrichment lookup needed for GNYSGYDDAWD [POLR1C_Y36] , thanks.
1.32

Please report the recorded phosphorylation enrichment for SSVAGYACLAF [MVD_Y131_A128V_YF] .
1.21

----------
System: AncSZ
Assay: phosphorylation enrichment, bacterial display (enrichment ratio); higher = better substrate or ligand; peptides without Tyr show the background
Reported property: phosphorylation enrichment
Provide a numeric answer; units are not to be included.

DPYHVYIKNRV [KCNE3_Y95]	0.973

What phosphorylation enrichment value was documented for this sequence, RRNSPYSQTMK [TET2_Y819] ?
1.02

Look at this sequence and give its reported phosphorylation enrichment. KKHIPYSEHKS [CSNK1G2_Y206_R207S]
0.718

Item CTTIHSNFMCN [TP53_Y234_Y234S_YF] has what recorded phosphorylation enrichment?
0.695

----------
Biological target: FGFR3 (UniProt P22607)
Sequence (P22607 whole entry, looked up): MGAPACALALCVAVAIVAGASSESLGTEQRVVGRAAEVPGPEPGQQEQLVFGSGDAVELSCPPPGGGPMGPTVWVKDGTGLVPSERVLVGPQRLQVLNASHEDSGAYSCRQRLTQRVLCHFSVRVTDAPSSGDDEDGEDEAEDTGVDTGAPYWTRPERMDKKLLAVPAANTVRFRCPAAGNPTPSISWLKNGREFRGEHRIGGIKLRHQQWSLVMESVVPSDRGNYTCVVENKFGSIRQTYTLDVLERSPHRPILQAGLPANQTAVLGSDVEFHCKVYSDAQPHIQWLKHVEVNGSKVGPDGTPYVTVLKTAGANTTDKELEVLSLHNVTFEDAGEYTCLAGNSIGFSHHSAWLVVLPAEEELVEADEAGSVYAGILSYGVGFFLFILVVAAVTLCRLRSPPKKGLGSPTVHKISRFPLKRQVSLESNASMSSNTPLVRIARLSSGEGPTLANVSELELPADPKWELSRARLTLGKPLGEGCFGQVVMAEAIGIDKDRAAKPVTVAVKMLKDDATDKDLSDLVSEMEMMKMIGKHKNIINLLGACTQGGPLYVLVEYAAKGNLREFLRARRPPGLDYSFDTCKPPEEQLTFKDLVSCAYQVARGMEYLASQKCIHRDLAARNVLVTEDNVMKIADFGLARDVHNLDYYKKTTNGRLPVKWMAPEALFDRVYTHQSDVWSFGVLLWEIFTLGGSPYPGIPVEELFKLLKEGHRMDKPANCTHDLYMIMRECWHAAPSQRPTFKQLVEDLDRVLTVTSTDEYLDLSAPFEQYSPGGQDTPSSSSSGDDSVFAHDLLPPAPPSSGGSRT
Assay: phosphorylation enrichment, bacterial display (enrichment ratio); higher = better substrate or ligand; peptides without Tyr show the background
# key: entry, value: phosphorylation enrichment

Worked examples follow.
GKTQQYDCKWY [BCR_Y751]	0.598
ETRWKYHFEVV [GCNT3_Y267]	1.04
KEAALYPHLLP [SQSTM1_Y383_P387L]	0.481
ATYRGYDSDNP [MMUT_Y146_H143Y]	0.543
EARRVYGDIIY [ALDH5A1_Y175_H180Y]	0.579

Now look at this entry.
State the recorded phosphorylation enrichment for this entry: KINKMYSDHAM
0.364

----------
Reported phosphorylation enrichment by item:
System: c-Abl (mouse)
Experiment: phosphorylation enrichment, bacterial display (enrichment ratio); higher = better substrate or ligand; peptides without Tyr show the background

TLQWMYGCDVG [HLA-B_Y123_S121W]	1.05
ADKSAYLMGPN [MYH7_Y386_L390P]	0.441
VKANTYEKFWL [GATM_Y100_P105L_YF]	0.672

Consider the sequence FEDTLYTVLHR [UNC13D_Y61_A59T_YF] and give its measured phosphorylation enrichment.
1.99

Look up phosphorylation enrichment for this sequence: LSCVIYVILRK [PMP22_Y153_G150C]
1.39

Item under review: QITQVYGFYHE [PPP2CA_Y127_D131H] . Reported phosphorylation enrichment?
0.67

Query: phosphorylation enrichment; subject: IDPYIYTPFGS [CYP3A4_Y432]
0.865

Form field: reported phosphorylation enrichment of KNAEKYAEEDW [HSPA9_Y568_R573W]
0.895

Using the record for RAFRRYLLKQK [SCN2A_Y1919_YF] , report its phosphorylation enrichment.
0.531

Record request: phosphorylation enrichment value, item AEYGLYAAMVR [VSX2_Y222_G223A]
3.28

Which phosphorylation enrichment is listed for NFRTTCVNANE [KCNH2_Y475_Y475C] ?
0.808

Reported phosphorylation enrichment, sequence SSQTIYQRVEG [TFR2_Y23_V22I] : ____
0.814

What phosphorylation enrichment value was documented for this sequence, MENFIYESMQY [CYP19A1_Y361_R365Q] ?
1.24

Field request: phosphorylation enrichment | item: FRQLQYCPSVE [CTNND2_Y508_YF]
0.808

----------
Biological target: EPHB1 (UniProt P54762)
Sequence (P54762 whole entry, looked up): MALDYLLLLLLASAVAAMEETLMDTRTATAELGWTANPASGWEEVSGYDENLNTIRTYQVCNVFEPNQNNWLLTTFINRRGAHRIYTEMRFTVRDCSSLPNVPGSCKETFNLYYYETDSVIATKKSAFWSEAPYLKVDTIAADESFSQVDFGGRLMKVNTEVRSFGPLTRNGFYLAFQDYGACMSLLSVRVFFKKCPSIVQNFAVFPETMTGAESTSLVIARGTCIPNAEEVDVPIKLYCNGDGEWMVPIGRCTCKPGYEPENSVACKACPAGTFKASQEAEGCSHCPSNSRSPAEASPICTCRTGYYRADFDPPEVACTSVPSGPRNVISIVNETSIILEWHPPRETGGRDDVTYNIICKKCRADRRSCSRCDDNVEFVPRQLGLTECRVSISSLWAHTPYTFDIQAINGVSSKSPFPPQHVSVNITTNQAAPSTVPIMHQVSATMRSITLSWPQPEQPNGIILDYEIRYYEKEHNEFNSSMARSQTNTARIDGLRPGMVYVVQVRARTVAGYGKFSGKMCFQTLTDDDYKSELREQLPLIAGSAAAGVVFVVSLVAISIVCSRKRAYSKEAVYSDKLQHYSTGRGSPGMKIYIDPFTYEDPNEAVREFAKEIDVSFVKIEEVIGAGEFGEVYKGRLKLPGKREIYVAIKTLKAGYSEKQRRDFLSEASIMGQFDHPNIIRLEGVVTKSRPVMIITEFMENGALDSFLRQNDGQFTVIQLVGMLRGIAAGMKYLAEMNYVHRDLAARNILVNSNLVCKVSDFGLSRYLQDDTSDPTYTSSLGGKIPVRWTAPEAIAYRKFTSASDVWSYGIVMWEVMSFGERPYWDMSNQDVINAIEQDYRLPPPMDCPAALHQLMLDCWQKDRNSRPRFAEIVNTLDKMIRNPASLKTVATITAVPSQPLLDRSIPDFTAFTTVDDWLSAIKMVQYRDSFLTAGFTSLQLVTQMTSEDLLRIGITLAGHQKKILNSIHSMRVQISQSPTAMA
Test: phosphorylation enrichment, bacterial display (enrichment ratio); higher = better substrate or ligand; peptides without Tyr show the background
Attribute: phosphorylation enrichment

EAIMTYVSSFF [ACTN4_Y260_K255E_YF]	0.621
QEMMEYRRQIQ [DES_Y324_H326R]	0.523
MTYMFYRENLR [NLRP14_Y443_V441M]	0.948

Please find the next sequence below.
Param readout= phosphorylation enrichment; system= EPHB1 (UniProt P54762); entry= AGARMYGVLPW [PLP1_Y207_D203G] ; returns value.
0.542

----------
Target: Fes (UniProt P07332)
Test: phosphorylation enrichment, bacterial display (enrichment ratio); higher = better substrate or ligand; peptides without Tyr show the background
Reported property: phosphorylation enrichment
# output: bare number, no unit

The examples below pair each entry with its known result.
ADDSFYTARSA [ZAP70_Y493_YF]	0.993
EAEPYYCSLRD [NPHS1_Y1139_R1140C]	1.43
QRCFVYFFSFL [PTEN_Y176_R173C_YF]	2.21
SYTDPYAQPSL [KMT2D_Y2378_P2382S]	1
LVRPPYSFSAL [FOXI1_Y126_YF]	0.618

Attention now turns to another entry.
Reported phosphorylation enrichment for GDRPVYSEDEQ [CHST6_Y362_Y358D] : what is it?
1.57

----------
Molecular target: Fyn (UniProt P06241)
Sequence (P06241 whole entry, looked up): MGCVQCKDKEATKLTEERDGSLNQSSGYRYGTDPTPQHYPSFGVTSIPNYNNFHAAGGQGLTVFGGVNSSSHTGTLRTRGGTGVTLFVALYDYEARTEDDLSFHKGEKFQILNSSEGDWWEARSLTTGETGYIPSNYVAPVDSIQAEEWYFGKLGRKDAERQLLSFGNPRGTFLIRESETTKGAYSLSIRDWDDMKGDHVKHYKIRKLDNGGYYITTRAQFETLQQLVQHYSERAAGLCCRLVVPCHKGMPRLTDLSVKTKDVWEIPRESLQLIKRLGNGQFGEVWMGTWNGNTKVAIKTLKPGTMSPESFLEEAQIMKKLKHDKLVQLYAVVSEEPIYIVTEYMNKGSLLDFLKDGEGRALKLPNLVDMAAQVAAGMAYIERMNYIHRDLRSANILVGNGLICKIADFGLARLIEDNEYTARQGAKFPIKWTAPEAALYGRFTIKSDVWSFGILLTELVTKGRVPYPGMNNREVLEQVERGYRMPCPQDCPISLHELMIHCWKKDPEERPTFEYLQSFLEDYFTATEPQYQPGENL
Test: phosphorylation enrichment, bacterial display (enrichment ratio); higher = better substrate or ligand; peptides without Tyr show the background
This section presents sequences with their documented phosphorylation enrichment values.
Form field (numeric): enter value without unit.

Example cases with answers are listed next.
VSGIPYSQPKQ [NEU1_Y251_G252S]	0.398
QISQDYGVLLE [PRDX3_Y172_R170Q]	0.828
IDPYIYTPFGS [CYP3A4_Y432]	7.45
KKYPDYIQIAR [SGMS2_Y59_M64R]	0.367

# phosphorylation enrichment lookup, item FLGKGYSDGGC [MC4R_Y35_S30F]
0.548

----------
Here, each record is paired with measured phosphorylation enrichment data.
Biological target: EPHB1 (UniProt P54762)
Assay: phosphorylation enrichment, bacterial display (enrichment ratio); higher = better substrate or ligand; peptides without Tyr show the background
Answer with a number only.

Consider the following illustrative entries.
GREEFYVHFVG [KAT8_Y90_YF]	0.661
RSAGKDDVYLI [MECP2_Y120_Y120D]	0.551
GTTIHYNFMCN [TP53_Y234_C229G_YF]	0.743
SARSAYQEAID [SFN_Y151_M155I]	0.461
RRKRAYVEIEY [MAK16_Y282_Q277R]	1.02

Would you mind telling me what phosphorylation enrichment value was observed for FRQLPYCPSVE [CTNND2_Y508_Q507P_YF] ?
0.647

What does the data say about its phosphorylation enrichment? Entry: LVRPPYSYSAL [FOXI1_Y126]
1.07

Any idea what its phosphorylation enrichment is? The sequence is CTTIHYNFMSN [TP53_Y234_C238S_YF]
0.621

Entry under review: FIAVGYVDDSQ [HLA-A_Y51_T55S] . Reported phosphorylation enrichment?
0.469

Look up phosphorylation enrichment: VAVVDYVEPSP [TXNRD2_Y70]
0.561

# get_value(readout='phosphorylation enrichment', item= SAEEDYIADAK [KCNT1_Y876_M877I] )
0.602

Would you kindly share the measured phosphorylation enrichment for QNTGDYCDLYG [PTPN11_Y62_Y63C] ?
9.03

Fill blank: measured phosphorylation enrichment of the sequence RRNSPYSQTMK [TET2_Y819] is ____.
1.07

Which measured phosphorylation enrichment value corresponds to PSPMPYASCQM [FOXL2_Y215] ?
0.631

Query (sequence): EKFVPYYDLFM [IPO5_Y530] ; field requested: phosphorylation enrichment
4.82

What measured phosphorylation enrichment goes with EPTPSYEVGQR [TSC2_Y1788_G1787S] ?
0.443

Requested read-out: phosphorylation enrichment. Entry: LWQTIYNLEAE [TNNT2_Y251_S249T]
1.3

Any idea what phosphorylation enrichment was measured for EAEPFYCSLRD [NPHS1_Y1139_R1140C_YF] ?
1.19

Recorded phosphorylation enrichment for DSASAYADEVK [ETNPPL_Y189] , please?
0.536

Need phosphorylation enrichment, item KAIMTYVPSFY [ACTN4_Y260_S262P]
0.413

// query phosphorylation enrichment value for entry FVTCTYSPALN [TP53_Y126_S121F]
0.603

phosphorylation enrichment lookup needed for KGERGYPGTPG [COL4A1_Y348] , thanks.
0.336

----------
phosphorylation enrichment by entry:
Molecular target: Fes (UniProt P07332)
Assay: phosphorylation enrichment, bacterial display (enrichment ratio); higher = better substrate or ligand; peptides without Tyr show the background

What value of phosphorylation enrichment has been recorded for this entry: MDDDQYALLTA [EFCAB6_Y675_T680A]
1.35

Which measured phosphorylation enrichment value corresponds to SNKLTYGTVVF [ACOX1_Y275_M278V] ?
0.845

May I ask what phosphorylation enrichment has been recorded for EEALHYLTRVE [SET_Y119] ?
1.13

Could you tell me which phosphorylation enrichment is on file for PANTVYSTVEI [SLAMF7_Y304] ?
2.16

Item under review: AFLLLCFNDTH [BMP15_Y235_Y235C] . Reported phosphorylation enrichment?
1.44

Bench note: what phosphorylation enrichment did VAMELYVFRGV [GAN_Y471_G474R] show?
1.29

May I ask what phosphorylation enrichment has been recorded for SECCKYKIDNP [OSMR_Y689] ?
0.786

Which phosphorylation enrichment is listed for QRPFVYFFSFL [PTEN_Y176_R173P_YF] ?
1.54

// phosphorylation enrichment lookup, key: VVSLFYGTALF [OR10C1_Y251_M246V]
1.43

# input sequence: GIVEDYRPRFY [ACVRL1_Y421_P424R] ; wanted: its phosphorylation enrichment
0.952

Fill in: phosphorylation enrichment of EQAERYDDMAA [YWHAG_Y20] is ___
1.03

Give its phosphorylation enrichment value. Item: PYVYYYSYLLK [PTEN_Y178_R173P]
1.87

# get_value(readout='phosphorylation enrichment', item= FLAATYPTLGQ [NF1_Y2508_V2511L_YF] )
0.674
